Data provenance: the supplement of paper PMC9334596

The following compounds are listed with their measured PER2::LUC luminescence values.
test system: mPer2Luc MEF; experiment: PER2::LUC luminescence relative to vehicle control (fold of vehicle); higher = higher PER2::LUC reporter signal; conditions: time after treatment 24 h; 10 µM
Over roughly 5,300 compounds, “PER2::LUC luminescence relative to vehicle control” has its median near 0.96; the highest 2% begin near 1.3. Many of the other results were omitted from the sample, so the highest values are more common in it than they were.

[
  {
    "COMPOUND": "CC[C@H]1CN(c2nc(N)c(C(N)=O)nc2Cl)CCN1C1CCN(Cc2ccc(Cl)cc2)CC1",
    "MEASURED PARAMETER": "PER2::LUC luminescence",
    "RESULT": 0.96
  },
  {
    "COMPOUND": "NCCOCCOCCNC(=O)Cc1ccc(Nc2nc(NCc3ccc(F)cc3)nc(NCC3CCCCC3)n2)cc1",
    "MEASURED PARAMETER": "PER2::LUC luminescence",
    "RESULT": 1.09
  },
  {
    "COMPOUND": "C=C[C@@](C)(O)CC[C@H]1C(=C)CC[C@H]2C(C)(C)CCC[C@]12C",
    "MEASURED PARAMETER": "PER2::LUC luminescence",
    "RESULT": 0.946
  }
]

In: Query: PER2::LUC luminescence; subject: CCO[C@H]1CN(C2CCC(O)(c3ccc4c(c3)OCO4)CC2)C[C@@H]1NC(=O)CNC(=O)c1cccc(C(F)(F)F)c1 (some centres undefined)
Out: 0.97

====

tested on: mPer2Luc MEF; assay: PER2::LUC luminescence relative to vehicle control (fold of vehicle); higher = higher PER2::LUC reporter signal; settings: time after treatment 30 h; 10 µM
Whole data set: some 5,300 compounds, median “PER2::LUC luminescence relative to vehicle control” near 0.96, cut for the highest 2% near 1.3. This excerpt belongs to a sample that is enriched for the highest values.
MEASURED PARAMETER: PER2::LUC luminescence
Lab note: write the figure by itself, no unit.

[
  {
    "MOLECULE": "O=C(Nc1ccccc1)C12C=C1C(=NO)c1ccccc1O2 (centres undefined)",
    "SUBJECT OF TEST": "mPer2Luc MEF",
    "QUANTITATIVE RESULT": 0.974
  },
  {
    "MOLECULE": "CC(C)Cc1ccc([C@@H](C)C(=O)O)cc1",
    "SUBJECT OF TEST": "mPer2Luc MEF",
    "QUANTITATIVE RESULT": 0.981
  },
  {
    "MOLECULE": "COC(=O)N[C@H](C(=O)NNC[C@H](O)[C@H](Cc1ccccc1)NC(=O)[C@@H](NC(=O)OC)C(C)(C)C)C(C)(C)C",
    "SUBJECT OF TEST": "mPer2Luc MEF",
    "QUANTITATIVE RESULT": 0.963
  },
  {
    "MOLECULE": "O=C1C[C@@H](c2ccccc2)Oc2cc(O)cc(O)c21",
    "SUBJECT OF TEST": "mPer2Luc MEF",
    "QUANTITATIVE RESULT": 1.08
  }
]

In: Query: PER2::LUC luminescence; subject: `Cc1cccc(/C=C/c2ccccc2)n1`
Out: 1.16

In: Query: PER2::LUC luminescence; subject: `C=CC[C@@H]1[C@H](O)CC[C@@]2(C)[C@H]1CC[C@@H]1[C@@H]2CC[C@]2(C)[C@@H]([C@H](C)CCCC(C)C)CC[C@@H]12`
Out: 0.987

In: Query: PER2::LUC luminescence; subject: `O=Cc1ccc2cccc(O)c2n1`
Out: 0.962

In: Query: PER2::LUC luminescence; subject: CC1(C)C2CCC1(C)C(O)C2 (centres undefined)
Out: 0.997

In: Query: PER2::LUC luminescence; subject: CC(C)Cc1ccc(C(C)C(=O)O)cc1 (racemic)
Out: 0.938

In: Query: PER2::LUC luminescence; subject: OC[C@H]1O[C@@H](O[C@H]2[C@H](O)[C@@H](O)C(O)O[C@@H]2CO)[C@H](O)[C@@H](O)[C@H]1O (some centres undefined)
Out: 1.06

In: Query: PER2::LUC luminescence; subject: `CO[C@@H]1[C@@H](O[C@@H]2O[C@H](C)[C@@H](O[C@H]3C[C@@](C)(O)[C@@H](OC(=O)CC(C)C)[C@H](C)O3)[C@H](N(C)C)[C@H]2O)[C@@H](CC=O)C[C@@H](C)[C@@H](O)/C=C/C=C/C[C@@H](C)OC(=O)C[C@H]1O`
Out: 1.07

In: Query: PER2::LUC luminescence; subject: `C[C@@H]1O[C@@H](OC[C@H]2O[C@@H](Oc3cc(O)c4c(c3)O[C@H](c3ccc(O)cc3)CC4=O)[C@H](O)[C@@H](O)[C@@H]2O)[C@H](O)[C@H](O)[C@H]1O`
Out: 0.972

====

test system: mPer2Luc MEF; assay: PER2::LUC luminescence relative to vehicle control (fold of vehicle); higher = higher PER2::LUC reporter signal; details: time after treatment 30 h; 10 µM
Whole data set: some 5,300 compounds, median “PER2::LUC luminescence relative to vehicle control” near 0.96, cut for the highest 2% near 1.3. What follows is part of a selection rich in the highest values, with near analogues and random picks from the rest.
MEASURED PARAMETER: PER2::LUC luminescence
Lab note: write the figure by itself, no unit.

[
  {
    "CPD SMILES": "O=C1/C(=C/c2cccs2)CC/C1=C\\c1cccs1",
    "QUANTITATIVE RESULT": 1.01
  }
]

In: Query: PER2::LUC luminescence; subject: `CC1=C(/C=C/C(C)=C\C=C\C(C)=C\C(=O)O)C(C)(C)CCC1`
Out: 1.87

In: Query: PER2::LUC luminescence; subject: `CC1=C(/C=C/C(C)=C/C=C/C(C)=C\CO)C(C)(C)CCC1`
Out: 1.03

====

The following compounds are listed with their measured PER2::LUC luminescence values.
system: mPer2Luc MEF; experiment: PER2::LUC luminescence relative to vehicle control (fold of vehicle); higher = higher PER2::LUC reporter signal; details: time after treatment 24 h; 10 µM
The full ranking holds about 5,300 compounds; the median of “PER2::LUC luminescence relative to vehicle control” is about 0.96, and the highest 2% start at about 1.3. The full list was thinned out, with the highest values kept by preference.
Lab note: write the figure by itself, no unit.

Recorded PER2::LUC luminescence, per entry:
[
  {
    "COMPOUND": "C#CCN(Cc1cc2c(=O)[nH]c(C)nc2cc1Br)c1ccc(C(=O)NCc2cccnc2)cc1",
    "MEASURED PARAMETER": "PER2::LUC luminescence",
    "QUANTITATIVE RESULT": 0.902
  },
  {
    "COMPOUND": "Cc1noc(-c2ccc(-c3ccc(CC(=O)O)cc3)cc2)c1NC(=O)OC(C)c1ccccc1Cl (stereo not drawn)",
    "MEASURED PARAMETER": "PER2::LUC luminescence",
    "QUANTITATIVE RESULT": 1.1
  }
]

In: Query: PER2::LUC luminescence; subject: CC(CC(=O)O)C(N)C(=O)O (racemic)
Out: 0.979

In: Query: PER2::LUC luminescence; subject: Clc1ccc(C(Cn2ccnc2)OCc2ccc(Sc3ccccc3)cc2)c(Cl)c1 (stereo not drawn)
Out: 0.905

In: Query: PER2::LUC luminescence; subject: `O=Cc1ccc2cccc(O)c2n1`
Out: 1.1

In: Query: PER2::LUC luminescence; subject: `C=CCn1c(=O)c2c(nc(-c3ccccc3)n2C)n(C)c1=O`
Out: 0.98

In: Query: PER2::LUC luminescence; subject: `Oc1cc(O)cc(/C=C/c2ccc(O)c(O)c2)c1`
Out: 1.15

In: Query: PER2::LUC luminescence; subject: `Cc1occc1C(=O)n1ccnc1`
Out: 0.986

In: Query: PER2::LUC luminescence; subject: `NC(=O)c1cccc2ncc(-c3ccc(Cl)cc3)nc12`
Out: 1.12

In: Query: PER2::LUC luminescence; subject: `COc1ccc2c(c1)OC/C(=C\c1ccc(OC)c(O)c1)C2=O`
Out: 0.879

In: Query: PER2::LUC luminescence; subject: `CC(=O)OC[C@@]1(O)C[C@@]23CC[C@@H]4c5ccoc5C=C[C@@]4(C)[C@@H]2CC[C@@H]1C3`
Out: 1.02

In: Query: PER2::LUC luminescence; subject: `COc1cc2c(cc1OC)[C@H]1[C@@H](C)c3ccc(OC)c(OC)c3CN1CC2`
Out: 0.954

In: Query: PER2::LUC luminescence; subject: `CCOC(=O)[N-]c1c[n+](N2CCOCC2)no1`
Out: 1.09

In: Query: PER2::LUC luminescence; subject: `CC(=O)NN(Cc1ccc(N)cc1)c1ncnc2c1ncn2[C@@H]1O[C@H](CO)[C@@H](O)[C@H]1O`
Out: 1.03

In: Query: PER2::LUC luminescence; subject: CC1(C)CC2C1CC[C@]1(CBr)CCC3C(CC(=O)O)C(=O)O[C@@]32C1 (stereo partly drawn)
Out: 1.04

In: Query: PER2::LUC luminescence; subject: `CCOc1ccc(C(=O)c2ccc(O)c(O)c2O)cc1`
Out: 0.963

In: Query: PER2::LUC luminescence; subject: `COc1ccc2c(C)cc(=O)oc2c1`
Out: 0.984

In: Query: PER2::LUC luminescence; subject: `CCOc1cccc(C(=O)c2ccc(O)c(O)c2O)c1`
Out: 1.23

In: Query: PER2::LUC luminescence; subject: `COc1cc(/C=C/c2ccc(O)cc2)cc(OC)c1`
Out: 1.03

In: Query: PER2::LUC luminescence; subject: `Cc1ccc(NC(=O)Nc2cc(-c3ccccc3-c3nn[nH]n3)ccc2N(CC(C)C)CC(C)C)cc1`
Out: 0.966
